system: AABA1060 (clinical isolate of Acinetobacter baumannii); experiment: MIC broth microdilution, AABA1060; assay type: cell-based; details: Acinetobacter baumannii, read-out: MIC AABA1060
Provide the recorded MIC for the entries that follow.

-- ask Hello, I am looking for reported MIC with AABA1060 (clinical isolate of Acinetobacter baumannii) for O=C(N[C@H](C(=O)NO)C1CC1)c1ccc(/C=C/C#Cc2ccc(CN3CCOCC3)cc2)cc1 . Could you help?
-- reply 2 to 16 mg/L

-- ask Hello, I am looking for reported MIC with AABA1060 (clinical isolate of Acinetobacter baumannii) for C[C@@H](N)[C@H](NC(=O)c1ccc(C#CC#Cc2ccc(Cl)cc2)cc1)C(=O)NO . Could you help?
-- reply > 64 mg/L

-- ask Hello, I am looking for reported MIC with AABA1060 (clinical isolate of Acinetobacter baumannii) for CC(C)(O)[C@H](NC(=O)c1ccc(C#C/C=C/c2ccncc2)cc1)C(=O)NO . Could you help?
-- reply 2 to 16 mg/L

-- ask Hello, I am looking for reported MIC with AABA1060 (clinical isolate of Acinetobacter baumannii) for O=CN(O)CCNC(=O)c1ccc(C#Cc2ccc(CN3CCOCC3)cc2)cc1 . Could you help?
-- reply > 64 mg/L

-- ask Hello, I am looking for reported MIC with AABA1060 (clinical isolate of Acinetobacter baumannii) for CO[C@H](C)[C@H](NC(=O)c1ccc(/C=C/C#Cc2ccc(CO)cc2)cc1)C(=O)NO . Could you help?
-- reply < 2 mg/L

-- ask Hello, I am looking for reported MIC with AABA1060 (clinical isolate of Acinetobacter baumannii) for CC(C)(O)[C@H](NC(=O)c1ccc(C#CC#Cc2cccs2)cc1)C(=O)NO . Could you help?
-- reply < 2 mg/L

-- ask Hello, I am looking for reported MIC with AABA1060 (clinical isolate of Acinetobacter baumannii) for C[C@@H](N)[C@H](NC(=O)c1ccc(C#CC#Cc2cccc(Cl)c2)cc1)C(=O)NO . Could you help?
-- reply 2 to 16 mg/L

-- ask Hello, I am looking for reported MIC with AABA1060 (clinical isolate of Acinetobacter baumannii) for C[C@@H](N)[C@H](NC(=O)c1ccc(C#CC#Cc2ccc(O)cc2)cc1)C(=O)NO . Could you help?
-- reply 2 to 16 mg/L

====

Provide the recorded MIC for the entries that follow.
tested on: ASAU001 (laboratory strain of S. aureus, ATCC29213); assay: MIC broth microdilution, ASAU001; assay type: cell-based; settings: Staphylococcus aureus, ATCC29213, read-out: MIC ASAU001

-- ask Fill in the blank: the reported MIC of C[C@@H](N)[C@H](NC(=O)c1ccc(C#CC#Cc2cccc(Cl)c2)cc1)C(=O)NO is ____.
-- reply 2 to 16 mg/L

-- ask Fill in the blank: the reported MIC of C[C@@H](O)[C@H](NC(=O)c1ccc(CCc2ccc(CN3CCOCC3)cc2)cc1)C(=O)NO is ____.
-- reply 16 to 64 mg/L

-- ask Fill in the blank: the reported MIC of C[C@H](O)[C@H](NC(=O)c1ccc(/C=C/C#Cc2ccc(CN3CCOCC3)cc2)cc1)C(=O)NO is ____.
-- reply > 64 mg/L

-- ask Fill in the blank: the reported MIC of C[C@@H](N)[C@H](NC(=O)c1ccc(C#Cc2ccc(COCC(F)(F)F)cc2)cc1)C(=O)NO is ____.
-- reply 16 to 64 mg/L

-- ask Fill in the blank: the reported MIC of C[C@@H](N)[C@H](NC(=O)c1ccc(C#Cc2ccc(NC(=O)CNC3CC3)cc2)cc1)C(=O)NO is ____.
-- reply 16 to 64 mg/L

-- ask Fill in the blank: the reported MIC of C[C@@H](N)[C@H](NC(=O)c1ccc(C#Cc2ccc(OC3CC3)cc2)cc1)C(=O)NO is ____.
-- reply 16 to 64 mg/L

-- ask Fill in the blank: the reported MIC of CC(C)(N)[C@H](NC(=O)c1ccc(C#CC#Cc2ccccc2F)cc1)C(=O)NO is ____.
-- reply 2 to 16 mg/L
